Test: qHTS assay to test for compound auto fluorescence at 460 nm (blue) in HepG2 cells (AID 720687); also: % is scaled to controls: 0 for no effect and ±100 for the full control effect
Conditions: autofluorescence 405/460 nm, 1 h; series mostly up to 91.3 µM
Calls of active or inactive are those of the source. Calls follow the shape of the dose curve; as a rule, active = well fitted curve in the direction sought with a large enough effect in the repeat runs; inconclusive = weak or mixed curves; inactive = flat fitted curve, though single readings scatter.
Measured endpoint: fluorescence, % of fluorescent control

Worked examples follow.
# Molecule, fluorescence, % of fluorescent control
rows = [
    ("C=C(C)C(=O)OCCOc1ccccc1", "inactive"),
    ("Cc1c(Cn2ccnc2)c2ccccc2n1CCC(=O)O", "inactive"),
    ("CCN(CC)CCNC(C(=O)OCCC(C)C)c1ccccc1 (stereo unspecified)", "inactive"),
    ("CCCCCCCCCC(=O)OCC", "inactive"),
    ("FC(F)(F)C(F)(F)C(F)(F)C(F)(F)C(F)(F)C(F)(F)CCI", "inactive"),
    ("O=c1c2ccccc2nnn1CCl", "inactive"),
    ("CC(C)CC=O", "inactive"),
    ("S=C(S)NCCNC(=S)S", "inactive"),
]

molecule N[C@H]1C(O)O[C@H](CO)[C@H](O)[C@@H]1O (stereo partly specified) , fluorescence, % of fluorescent control observed: inactive

molecule `N=C(N=C(N)N)N1CCOCC1` , fluorescence, % of fluorescent control observed: 0.133% [at 18.6 µM] (inactive)

molecule `CC(=O)N(O)CCCCCNC(=O)CCC(=O)N(O)CCCCCNC(=O)CCC(=O)N(O)CCCCCN` , fluorescence, % of fluorescent control observed: 0.041% [at 18.6 µM] (inactive)

molecule `CCCCCCCCCCCCC(=O)O` , fluorescence, % of fluorescent control observed: inactive

molecule `C=C(C)C(=O)OC(C)C` , fluorescence, % of fluorescent control observed: inactive

molecule `CCCCCCCC/C=C\CCCCCCCC(N)=O` , fluorescence, % of fluorescent control observed: inactive

molecule `COCCCCCCCCOCCC[Si](C)(O[Si](C)(C)C)O[Si](C)(C)C` , fluorescence, % of fluorescent control observed: inactive

molecule `Cc1ccc(O)c([C@H](CCN(C(C)C)C(C)C)c2ccccc2)c1` , fluorescence, % of fluorescent control observed: inactive

molecule `CC1=CC(=O)/C(=C(/C)O)C(=O)O1` , fluorescence, % of fluorescent control observed: inactive

molecule `CCOC(=S)SSC(=S)OCC` , fluorescence, % of fluorescent control observed: inactive

molecule `C1=Cc2ccccc2C1` , fluorescence, % of fluorescent control observed: inactive

molecule `CCOc1cc(OCC)c(C(=O)CCC(=O)O)cc1OCC` , fluorescence, % of fluorescent control observed: inactive

molecule `CCCC(C)C` , fluorescence, % of fluorescent control observed: inactive

molecule `Cn1c(NCCN(CCO)CCCc2ccc([N+](=O)[O-])cc2)cc(=O)n(C)c1=O` , fluorescence, % of fluorescent control observed: inactive

molecule `COC(=O)C(C)=O` , fluorescence, % of fluorescent control observed: inactive
